Tested on: giant foxtail (Setaria faberii)
Experiment description: Test A postemergence
Format: in vivo
Test parameters: Setaria faberi, post-emergence, 240 h, 125 g ai/ha, postemergence, visual injury rating after approximately 10 d; read-out: Foxtail, Giant plant response rating (0 to 100 scale, 0 no effect, 100 complete control)
Quantity measured: pest or weed control at 125 g/ha (%)

In [3]: df
Out[3]:
                                    molecule  endpoint_result
 0  Cc1cc(F)ccc1NC(=O)[C@H]1C(=O)NC[C@@H]1c1cccc(C(F)(F)F)c1               90
 1  CCOc1ccc([C@H]2CNC(=O)[C@@H]2C(=O)Nc2cccc(F)c2F)cc1               60
 2  CN1C[C@H](c2cc(F)cc(F)c2)[C@@H](C(=O)Nc2ncc(C(F)(F)F)cc2F)C1=O                0
 3  Cc1c(F)ccc([C@H]2CN(C)C(=O)[C@@H]2C(=O)Nc2ccccc2C(F)(F)F)c1F               90
 4  Cc1c(F)ccc([C@H]2CN(C)C(=O)[C@@H]2C(=O)Nc2ccccc2F)c1F               90
 5  CN1C[C@H](c2cccc(F)c2)[C@@H](C(=O)Nc2ccccc2F)C1=O               90
 6  Cc1c(F)ccc([C@H]2CN(C)C(=O)[C@@H]2C(=O)Nc2ccccc2S(C)(=O)=O)c1F               90
 7  O=C1NC[C@H](c2ccc3c(c2)CCO3)[C@H]1C(=O)Nc1ccc(F)cc1F               30
 8  CC(C)c1cccc([C@H]2CN(C)C(=O)[C@@H]2C(=O)Nc2ccc(F)cc2F)c1               80
 9  CN1CC[C@H](c2cccc(OC(F)(F)F)c2)[C@@H](C(=O)Nc2ccccc2C(F)(F)F)C1=O                0
10  CC(C)(C)c1ccc([C@H]2CNC(=O)[C@@H]2C(=O)Nc2cccc(F)c2F)cc1                0
11  CN1CC(c2cccc(C=O)c2)C(C(=O)Nc2ccccc2F)C1=O (stereo not drawn)                0

---

Test system: barnyardgrass (Echinochloa crus-galli)
Experiment description: Test G Post-Emergence Protocol
Type: in vivo
Test parameters: Echinochloa crus-galli, post-emergence, 312 h, 15.625 g ai/ha, evaluated after 13 days (100=total damage to plant; 0=no damage to plant), read-out: Barnyardgrass damage rating
Quantity measured: pest or weed control at 15.625 g/ha (%)

>>> print(df.to_string())
                                    compound  measurement_unit  endpoint_result
 0  Cc1cc(NC(=O)[C@@H]2C(=O)N(C)C[C@H]2c2ccc(C(F)(F)F)cc2)no1 (racemic) [Compound 1556]                 %                0
 1  Cc1cc(NC(=O)[C@@H]2C(=O)N(C)C[C@H]2c2ccc(C(F)(F)F)cc2)ccn1 (racemic) [Compound 1600]                 %                0
 2  Cc1c(NC(=O)[C@H]2C(=O)N(C)C[C@@H]2c2ccc(C(F)(F)F)cc2)cccc1C(F)(F)F (racemic) [Compound 1424]                 %                0
 3  CC(C)OC(=O)c1cc([C@H]2CN(C)C(=O)[C@@H]2C(=O)Nc2ccccc2F)ccc1F (racemic) [Compound 1730]                 %                0
 4  CN1C[C@H](c2ccc(C(F)(F)F)cc2)[C@@H](C(=O)Nc2cc(C#N)ccn2)C1=O (racemic) [Compound 1734]                 %                0
 5  Cc1nc(NC(=O)[C@@H]2C(=O)N(C)C[C@H]2c2ccc(C(F)(F)F)cc2)ccc1Cl (racemic) [Compound 1642]                 %                0
 6  CN1C[C@H](c2ccc(C(F)(F)F)cc2)[C@@H](C(=O)Nc2ccccc2C(C)(C)C)C1=O (racemic) [Compound 1445]                 %                0
 7  CN1C[C@H](c2cccc(C(F)(F)F)c2)[C@@H](C(=O)Nc2c(O)cccc2F)C1=O (racemic) [Compound 1808]                 %                0
 8  CN1C[C@@H](c2ccc(C(F)(F)F)cc2)[C@H](C(=O)Nc2nnnn2C)C1=O (racemic) [Compound 1618]                 %                0
 9  CN1C[C@@H](c2ccc(C(F)(F)F)cc2)[C@H](C(=O)Nc2nccnc2Cl)C1=O (racemic) [Compound 1552]                 %                0
10  Cc1ccc([C@H]2CN(C)C(=O)[C@@H]2C(=O)Nc2cccc3c2S(=O)(=O)CC3)cc1 (racemic) [Compound 1739]                 %                0
11  COc1cc(C2CN(C)C(=O)C2C(=O)Nc2cccc(F)c2F)cc(Cl)c1F (centres unmarked) [Compound 1705]                 %               20
12  COc1c(F)cc(C2CN(C)C(=O)C2C(=O)Nc2cccc(F)c2F)cc1F (centres unmarked) [Compound 1702]                 %               60
13  Cc1c(F)cccc1NC(=O)[C@@H]1C(=O)N(C)C[C@H]1c1ccc2nonc2c1 (racemic) [Compound 1818]                 %                0

---

Tested on: ryegrass, Italian (Italian ryegrass, Lolium multiflorum)
Experiment description: Test A postemergence
Type: in vivo
Test parameters: Lolium multiflorum, post-emergence, 240 h, 125 g ai/ha, Postemergence, visual rating about 10 d after treatment; read-out: Ryegrass, Italian plant response rating (0 to 100 scale)
We begin with a simple list: items and their reported pest or weed control at 125 g/ha.
Quantity measured: pest or weed control at 125 g/ha (%)

>>> df
                                    compound                               target_desc  endpoint_result
 0  Cc1c(F)ccc([C@H]2CNC(=O)[C@@H]2C(=O)Nc2ccccc2F)c1F [Compound 1326]  ryegrass, Italian (Italian ryegrass, Lolium multiflorum)                0
 1  CN1C[C@H](c2ccccc2)[C@@H](C(=O)Nc2cccc(F)c2F)C1=O [Compound 1282]  ryegrass, Italian (Italian ryegrass, Lolium multiflorum)               40
 2  O=C1NC[C@H](c2csc3c2CCOC3)[C@H]1C(=O)Nc1cccc(F)c1F [Compound 1279]  ryegrass, Italian (Italian ryegrass, Lolium multiflorum)                0
 3  Cc1ccncc1NC(=O)[C@H]1C(=O)N(C)C[C@@H]1c1ccc2c(c1)OC(F)(F)O2 [Compound 1351]  ryegrass, Italian (Italian ryegrass, Lolium multiflorum)                0
 4  CN1C[C@H](c2cccc(C(F)(F)F)c2)[C@@H](C(=O)Nc2ccccc2-n2cncn2)C1=O [Compound 1289]  ryegrass, Italian (Italian ryegrass, Lolium multiflorum)                0
 5  CN1C[C@H](c2ccc(C(F)(F)F)cc2)[C@@H](C(=O)Nc2ccc(F)nc2F)C1=O [Compound 1347]  ryegrass, Italian (Italian ryegrass, Lolium multiflorum)               40
 6  CN1C[C@H](c2cccc(C#N)c2)[C@@H](C(=O)Nc2ccc(F)c(F)c2F)C1=O [Compound 1287]  ryegrass, Italian (Italian ryegrass, Lolium multiflorum)                0
 7  Cc1cccc([C@H]2CN(C)C(=O)[C@@H]2C(=O)Nc2ccc(F)nc2F)c1 [Compound 1349]  ryegrass, Italian (Italian ryegrass, Lolium multiflorum)               20
 8  CN1C[C@H](c2cc(C(F)(F)F)cs2)[C@@H](C(=O)Nc2cccc(F)c2F)C1=O [Compound 1377]  ryegrass, Italian (Italian ryegrass, Lolium multiflorum)               30
 9  Cc1c(F)cccc1NC(=O)[C@H]1C(=O)N(C)C[C@@H]1c1ccc2c(c1)C(F)(F)C(F)(F)O2 [Compound 1272]  ryegrass, Italian (Italian ryegrass, Lolium multiflorum)               30
10  COc1c([C@H]2CN(C)C(=O)[C@@H]2C(=O)Nc2ccccc2F)cccc1C(F)(F)F [Compound 1338]  ryegrass, Italian (Italian ryegrass, Lolium multiflorum)                0
11  O=C1NC[C@H](c2ccc(OC(F)F)cc2)[C@H]1C(=O)Nc1ccc(F)cc1F [Compound 1325]  ryegrass, Italian (Italian ryegrass, Lolium multiflorum)                0
12  CN1C[C@H](c2cc(Cl)cc(Cl)c2)[C@@H](C(=O)Nc2ccccc2F)C1=O [Compound 1269]  ryegrass, Italian (Italian ryegrass, Lolium multiflorum)               30
13  O=C(Nc1cccc(F)c1F)C1C(=O)N(CC(F)F)CC1c1cccc(C(F)(F)F)c1 (stereo not drawn) [Compound 1294]  ryegrass, Italian (Italian ryegrass, Lolium multiflorum)                0
14  CC(C)=Cc1cc([C@H]2CN(C)C(=O)[C@@H]2C(=O)Nc2cccc(F)c2F)ccc1C(F)(F)F [Compound 1337]  ryegrass, Italian (Italian ryegrass, Lolium multiflorum)               20
